All values here come from the supplement of paper PMC12613149.

assay.method.text: reversed-phase LC retention time (C18, 15 min MeOH gradient); higher = more hydrophobic / later elution
reported.conditions: ionization mode: ESI+; ion species: [M+H]+
The following compounds are shown together with reported reversed-phase LC retention time values.
property: reversed-phase LC retention time (min)

1) OC(Cc1ccccc1Cl)(Cn1cncn1)C1(Cl)CC1 (centres undefined)	14.9
2) Cn1cc(C(=O)Nc2ccccc2-c2cc(F)c(F)c(F)c2)c(C(F)F)n1	14.4
3) Nc1nc(=O)c2ncn(COCC(=O)O)c2[nH]1	2.54
4) CC1CCc2cc(F)cc3c(=O)c(C(=O)O)cn1c23 (centres undefined)	11.7
5) COc1cc2ccc(=O)oc2c(O)c1O	8.29
6) CC12CCC(=O)C=C1CCC1C2CCC2(C)C(C(=O)CO)CCC12 (centres undefined) [21-Hydroxyprogesterone]	14.5
7) CCC[C@@H]1C[C@@H](C(=O)N[C@@H]([C@H]2O[C@H](SC)[C@H](O)[C@@H](O)[C@H]2O)[C@@H](C)O)N(C)C1	7.84
8) CCCN(CCC)CCc1cccc2c1CC(=O)N2	7.95
9) Cc1ccc(NC(=O)N(C)C)cc1Cl	12.5

----------
Quick reference for reversed-phase LC retention time among some compounds
assay.method.text: reversed-phase LC retention time (C18, 15 min MeOH gradient); higher = more hydrophobic / later elution
reported.conditions: ionization mode: ESI+; ion species: [M]+
property: reversed-phase LC retention time (min)

1) CCCCCCCCCCCCCC[N+](C)(C)C	16.5
2) CCCCCCCCCCCCCCCC[N+](C)(C)Cc1ccccc1	17.8
3) CCCCCCCCCCCCCCCC[n+]1ccccc1	17.5
4) C[N+](C)(C)CC1CO1 (stereo not drawn)	0.95
5) CCCCCCCCCC[N+](C)(C)CCCCCCCCCC	17.3
6) CCCC[N+](CCCC)(CCCC)CCCC	11
7) CCCCCCCCCCCCCC(=O)NCCC[N+](C)(C)CCCS(=O)(=O)O	16.9
8) CCCCCCCCCCCC[N+](C)(C)Cc1ccccc1	16
9) COC[P+](c1ccccc1)(c1ccccc1)c1ccccc1	10.6
10) CCN(CCO)c1ccc(N=Nc2sc3cc(OC)ccc3[n+]2C)cc1	12.1
11) CCCCCCCCCCCCCCCC[N+](C)(C)C	17.4
12) CCCCCCCCCCCCCCCCCC[N+](C)(C)CCCCCCCCCCCCCCCCCC	21.1
13) CCCCCCCCCC[N+](C)(C)Cc1ccccc1	14.7
14) C[N+](C)(C)Cc1ccccc1	5.04
15) C[N+]1(C)CCCCC1 [Mepiquat]	1.01
16) CCCCCCCCCCCC[N+](C)(C)C	15.2
17) CCCCCCCCCCCC(=O)NCCC[N+](C)(C)CC(=O)O	15.9
18) CCCCCCCCCCCCCC[N+](C)(C)Cc1ccccc1	17

----------
assay.method.text: collision cross section (TIMS, N2 drift gas) of the primary ion; higher = larger gas-phase ion size
reported.conditions: ionization mode: ESI+; ion species: [M+H]+
property: collision cross section

1) CCNc1nc(NC(C)(C)C)nc(SC)n1	160.25 Å²
2) CCCCCCCCCCCC(=O)N(CCO)CCO [Lauryl diethanolamide]	185.96 Å²
3) COc1cc(C[C@H]2COC(=O)[C@@H]2Cc2ccc(O)c(OC)c2)ccc1O	191.29 Å²
4) CCOP(=S)(OCC)Oc1cc(C)nc(C(C)C)n1	172.11 Å²
5) CC[C@H]1OC(=O)[C@H](C)[C@@H](O[C@H]2C[C@@](C)(OC)[C@@H](O)[C@H](C)O2)[C@H](C)[C@@H](O[C@@H]2O[C@H](C)C[C@H](N(C)C)[C@H]2O)[C@](C)(O)C[C@@H](C)C(=O)[C@H](C)[C@@H](O)[C@]1(C)O	259.69 Å²
6) Nc1ccc(-c2ccc(N)cc2)cc1	155.46 Å²
7) O=C(Nc1ccccc1)c1ccccc1SSc1ccccc1C(=O)Nc1ccccc1 [2,2'-Dithiobisbenzanilide]	195.49 Å²
8) CCCCC(CC)COC(=O)CC(C(=O)OCC(CC)CCCC)S(=O)(=O)O (stereo not drawn) [Dioctylsulfosuccinate]	222.09 Å²
